The entries below come with measured log10 of MIC values attached.
Test system: Staphylococcus aureus
Assay: Antibacterial activity against Staphylococcus aureus MTCC 96 by broth dilution method
Format: functional
observationType: log10 of MIC (log10 of the value in µg/mL)

{"columns": ["compound", "log10 of MIC"],
 "data": [
  ["COc1ccc(C(c2oc(CO)cc(=O)c2O)c2c(C)[nH]c3ccccc23)cc1 (stereo not drawn)", 2.18],
  ["COc1ccc(C(c2oc(CO)cc(=O)c2O)c2c[nH]c3ccc(Cl)cc23)cc1 (stereo not drawn)", 0.37],
  ["COc1ccc(C(c2oc(CO)cc(=O)c2O)c2c(-c3ccccc3)[nH]c3ccccc23)cc1 (stereo not drawn)", 1.57],
  ["CN[C@@H]1[C@H](O[C@H]2[C@H](O[C@H]3[C@H](O)[C@@H](O)[C@H](N=C(N)N)[C@@H](O)[C@@H]3N=C(N)N)O[C@@H](C)[C@]2(O)C=O)O[C@@H](CO)[C@H](O)[C@H]1O [STREPTOMYCIN]", 0.80],
  ["CC1(C)S[C@@H]2[C@H](NC(=O)Cc3ccccc3)C(=O)N2[C@H]1C(=O)O [PENICILLIN G]", 0.19],
  ["Cc1[nH]c2ccccc2c1C(c1ccc2ccccc2c1)c1oc(CO)cc(=O)c1O (stereo not drawn)", 2.18],
  ["COc1ccc(C(c2oc(CO)cc(=O)c2O)c2c[nH]c3ccc(Br)cc23)cc1 (stereo not drawn)", 1.27],
  ["Cc1[nH]c2ccccc2c1C(c1ccc(Cl)cc1)c1oc(CO)cc(=O)c1O (stereo not drawn)", 1.57]
]}

====

Tested on: Diutina rugosa
Assay: Antifungal activity against Candida rugosa NCIM 3462 assessed as zone of inhibition at 150 ug by agar well diffusion method
Format: functional
Conditions: read-out: IZ

{"columns": ["compound", "zone of inhibition at 150 µg/disc (mm)"],
 "data": [
  ["COc1ccc(C(c2oc(CO)cc(=O)c2O)c2c(C)[nH]c3ccccc23)cc1 (stereo not drawn)", 0],
  ["COc1ccc(C(c2oc(CO)cc(=O)c2O)c2c[nH]c3ccc(Cl)cc23)cc1 (stereo not drawn)", 0],
  ["O=c1cc(CO)oc(C(c2cccc(Oc3ccccc3)c2)c2c[nH]c3ccccc23)c1O (stereo not drawn)", 18]
]}

====

Tested on: Diutina rugosa
Test: Antifungal activity against Candida rugosa NCIM 3462 assessed as zone of inhibition at 150 ug by agar well diffusion method
Assay type: functional
Details: read-out: IZ
The entries below come with measured zone of inhibition at 150 µg/disc values attached.

{"columns": ["compound", "zone of inhibition at 150 µg/disc / mm"],
 "data": [
  ["Cc1[nH]c2ccccc2c1C(c1ccc2ccccc2c1)c1oc(CO)cc(=O)c1O (stereo not given)", 0],
  ["O=c1cc(CO)oc(C(c2ccccc2O)c2c(-c3ccccc3)[nH]c3ccccc23)c1O (stereo not given)", 0],
  ["Cc1[nH]c2ccccc2c1C(c1ccc(Cl)cc1)c1oc(CO)cc(=O)c1O (stereo not given)", 0],
  ["O=c1cc(CO)oc(C(c2ccccc2)c2c[nH]c3ccccc23)c1O (stereo not given)", 9],
  ["COc1cc(C(c2oc(CO)cc(=O)c2O)c2c(C)[nH]c3ccccc23)ccc1O (stereo not given)", 0]
]}

====

Test system: Candida albicans
Experiment: Antifungal activity against Candida albicans MTCC 227 assessed as zone of inhibition at 150 ug by agar well diffusion method
Assay type: functional
Conditions: read-out: IZ
Give label 1 when the value for zone of inhibition at 150 µg/disc is at least 10 mm. Give label 0 when it is less.

{"columns": ["compound", "systemUnderTest", "assignedLabel"],
 "data": [
  ["COc1ccc(C(c2oc(CO)cc(=O)c2O)c2c(C)[nH]c3ccccc23)cc1 (stereo not drawn)", "Candida albicans", "label 0"],
  ["Cc1[nH]c2ccccc2c1C(c1ccc(Cl)cc1)c1oc(CO)cc(=O)c1O (stereo not drawn)", "Candida albicans", "label 0"],
  ["COc1ccc(C(c2oc(CO)cc(=O)c2O)c2c(-c3ccccc3)[nH]c3ccccc23)cc1 (stereo not drawn)", "Candida albicans", "label 1"],
  ["Cc1[nH]c2ccccc2c1C(c1cccc(Oc2ccccc2)c1)c1oc(CO)cc(=O)c1O (stereo not drawn)", "Candida albicans", "label 1"],
  ["O=c1cc(CO)oc(C(c2ccccc2)c2c[nH]c3ccccc23)c1O (stereo not drawn)", "Candida albicans", "label 0"],
  ["Cc1[nH]c2ccccc2c1C(c1ccc2ccccc2c1)c1oc(CO)cc(=O)c1O (stereo not drawn)", "Candida albicans", "label 0"],
  ["COc1cc(C(c2oc(CO)cc(=O)c2O)c2c(C)[nH]c3ccccc23)ccc1O (stereo not drawn)", "Candida albicans", "label 0"],
  ["COc1ccc(C(c2oc(CO)cc(=O)c2O)c2c[nH]c3ccc(Cl)cc23)cc1 (stereo not drawn)", "Candida albicans", "label 1"],
  ["COc1ccc(C(c2oc(CO)cc(=O)c2O)c2c[nH]c3ccccc23)cc1 (stereo not drawn)", "Candida albicans", "label 0"],
  ["CCC(c1oc(CO)cc(=O)c1O)c1c(-c2ccccc2)[nH]c2ccccc12 (stereo not drawn)", "Candida albicans", "label 0"],
  ["COc1ccc(C(c2oc(CO)cc(=O)c2O)c2c[nH]c3ccc(Br)cc23)cc1 (stereo not drawn)", "Candida albicans", "label 1"],
  ["O=c1cc(CO)oc(C(c2cccc(Oc3ccccc3)c2)c2c[nH]c3ccccc23)c1O (stereo not drawn)", "Candida albicans", "label 1"],
  ["O=c1cc(CO)oc(C(c2ccccc2O)c2c(-c3ccccc3)[nH]c3ccccc23)c1O (stereo not drawn)", "Candida albicans", "label 1"]
]}

====

Tested on: Candida albicans
Assay: Antifungal activity against Candida albicans MTCC 227 assessed as zone of inhibition at 100 ug by agar well diffusion method
Format: functional
Conditions: read-out: IZ
The entries below come with measured zone of inhibition at 100 µg/disc values attached.

{"columns": ["compound", "systemUnderTest", "zone of inhibition at 100 µg/disc, mm"],
 "data": [
  ["COc1ccc(C(c2oc(CO)cc(=O)c2O)c2c[nH]c3ccc(Cl)cc23)cc1 (centres undefined)", "Candida albicans", 11],
  ["COc1ccc(C(c2oc(CO)cc(=O)c2O)c2c(-c3ccccc3)[nH]c3ccccc23)cc1 (centres undefined)", "Candida albicans", 9],
  ["O=c1cc(CO)oc(C(c2ccccc2O)c2c(-c3ccccc3)[nH]c3ccccc23)c1O (centres undefined)", "Candida albicans", 10],
  ["Cc1[nH]c2ccccc2c1C(c1cccc(Oc2ccccc2)c1)c1oc(CO)cc(=O)c1O (centres undefined)", "Candida albicans", 9],
  ["O=c1cc(CO)oc(C(c2ccccc2)c2c[nH]c3ccccc23)c1O (centres undefined)", "Candida albicans", 0],
  ["Cc1[nH]c2ccccc2c1C(c1ccc(Cl)cc1)c1oc(CO)cc(=O)c1O (centres undefined)", "Candida albicans", 0],
  ["COc1cc(C(c2oc(CO)cc(=O)c2O)c2c(C)[nH]c3ccccc23)ccc1O (centres undefined)", "Candida albicans", 0],
  ["COc1ccc(C(c2oc(CO)cc(=O)c2O)c2c(C)[nH]c3ccccc23)cc1 (centres undefined)", "Candida albicans", 0],
  ["COc1ccc(C(c2oc(CO)cc(=O)c2O)c2c[nH]c3ccc(Br)cc23)cc1 (centres undefined)", "Candida albicans", 13],
  ["C[C@@H]1[C@H](O)[C@@H](C)/C=C/C=C/C=C/C=C/C=C/C=C/C=C/[C@H](O[C@@H]2O[C@H](C)[C@@H](O)[C@H](N)[C@@H]2O)C[C@@H]2O[C@](O)(C[C@@H](O)C[C@@H](O)[C@H](O)CC[C@@H](O)C[C@@H](O)CC(=O)O[C@H]1C)C[C@H](O)[C@H]2C(=O)O", "Candida albicans", 23.5],
  ["Cc1[nH]c2ccccc2c1C(c1ccc2ccccc2c1)c1oc(CO)cc(=O)c1O (centres undefined)", "Candida albicans", 0],
  ["O=c1cc(CO)oc(C(c2cccc(Oc3ccccc3)c2)c2c[nH]c3ccccc23)c1O (centres undefined)", "Candida albicans", 14],
  ["COc1ccc(C(c2oc(CO)cc(=O)c2O)c2c[nH]c3ccccc23)cc1 (centres undefined)", "Candida albicans", 0],
  ["CCC(c1oc(CO)cc(=O)c1O)c1c(-c2ccccc2)[nH]c2ccccc12 (centres undefined)", "Candida albicans", 0]
]}

====

The entries below come with measured MIC values attached.
System: Staphylococcus aureus
Assay: Antibacterial activity against Staphylococcus aureus MTCC 96 by broth dilution method
Format: functional

{"columns": ["compound", "MIC / µg/mL"],
 "data": [
  ["Cc1[nH]c2ccccc2c1C(c1cccc(Oc2ccccc2)c1)c1oc(CO)cc(=O)c1O (configuration not stated)", 18.8],
  ["COc1cc(C(c2oc(CO)cc(=O)c2O)c2c(C)[nH]c3ccccc23)ccc1O (configuration not stated)", 150],
  ["CCC(c1oc(CO)cc(=O)c1O)c1c(-c2ccccc2)[nH]c2ccccc12 (configuration not stated)", 9.38],
  ["O=c1cc(CO)oc(C(c2cccc(Oc3ccccc3)c2)c2c[nH]c3ccccc23)c1O (configuration not stated)", 37.5],
  ["O=c1cc(CO)oc(C(c2ccccc2O)c2c(-c3ccccc3)[nH]c3ccccc23)c1O (configuration not stated)", 4.68],
  ["COc1ccc(C(c2oc(CO)cc(=O)c2O)c2c[nH]c3ccccc23)cc1 (configuration not stated)", 37.5],
  ["O=c1cc(CO)oc(C(c2ccccc2)c2c[nH]c3ccccc23)c1O (configuration not stated)", 150]
]}

Values were extracted from ChEMBL document CHEMBL1287779.
